Reported inhibition values for a set of compounds
- assay remarks: endothelial E-selectin expression blockers – imaging, HUVEC, immunofluorescence, MLSMR starter and 10KST1 sets, primary screen (AID 487);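 also: signal is fraction of cell area covered by stained E-selectin grains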
- measurement setup: HUVEC TNFalpha-induced E-selectin immunofluorescence imaging, at 2 µM; hits give high values
quantity: inhibition (%)

{"columns": ["compound", "unit name", "reported measurement"],
 "data": [
  ["CN(CC(=O)Nc1ccncc1)S(=O)(=O)c1ccccc1", "%", -141],
  ["COc1ccc(-c2noc(COc3ccc4ccccc4c3Br)n2)cc1OC", "%", 8.2],
  ["CCn1c(=O)n(CC(=O)Nc2cc(OC)ccc2OC)c(=O)c2ccccc21", "%", -1.5],
  ["CCC(=O)N1CCc2cc(S(=O)(=O)CCC(=O)Nc3nc(C)cs3)ccc21", "%", -144],
  ["CCOc1ccc(OCC)c2sc(C)nc12", "%", 1],
  ["O=C(O)CCCNS(=O)(=O)c1ccc(NCc2ccccc2)c(C(=O)O)c1", "%", 7],
  ["Cc1ccc(-c2nnn(CC(=O)NC3CC4CCC3C4)n2)cc1 (configuration not stated)", "%", 3.6],
  ["CCNC(=O)CC(=O)Nc1ccccc1C(=O)O", "%", -35.3],
  ["OCc1nc2ccccc2n1CC(O)Cn1ccc2ccccc21 (configuration not stated)", "%", -71.2],
  ["COC(=O)c1[nH]c2cccc(C)c2c1NC(=O)CN1CCCc2ccccc21", "%", -47.3],
  ["Cc1nnc(C)c2c(C)n(-c3ccc(Br)cc3)c(C)c12", "%", -47.7],
  ["O=C1c2ccccc2C(=O)N1OCc1ccccc1", "%", -71.8]
]}
